Entry source: ChEMBL document CHEMBL1687858

System: T47D
Experiment: Effect on cellular respiration in human T47D cells assessed as increase in state 4 respiration at 0.3 to 3 uM by cell-based reporter assay
Type: functional
The source made the active and inactive calls. No cut-off for these calls is given here.
measured.metric: Activity

Would you please look over these solved cases?
[
  {
    "compound": "CCCc1cc(=O)oc2c(C(=O)CC(C)C)c(O)c(CC=C(C)C)c(O)c12",
    "Activity": "Active"
  },
  {
    "compound": "CCCC[C@H](O)c1cc(=O)oc2c(C(=O)[C@@H](C)CC)c(OC)c(CC=C(C)C)c(OC)c12",
    "Activity": "Non-toxic"
  },
  {
    "compound": "CCCc1cc(=O)oc2c(CC=C(C)C)c(O)c(C(=O)[C@H](C)CC)c(O)c12",
    "Activity": "Active"
  },
  {
    "compound": "CC(C)=CCc1c(O)c(C(=O)CC(C)C)c2oc(=O)cc(-c3ccccc3)c2c1O [ISOMAMMEISIN]",
    "Activity": "Active"
  },
  {
    "compound": "CCCCCc1cc(=O)oc2c(C(=O)CC(C)C)c(O)c(CC=C(C)C)c(O)c12",
    "Activity": "Active"
  },
  {
    "compound": "CCCC[C@H](OC(C)=O)c1cc(=O)oc2c(C(=O)[C@@H](C)CC)c(OC(C)=O)c(CC=C(C)C)c(OC(C)=O)c12",
    "Activity": "Non-toxic"
  }
]

Let's switch to this compound now.
Query: # lookup: Activity of CCCC[C@H](O)c1cc(=O)oc2c(C(=O)[C@@H](C)CC)c(O)c(CC=C(C)C)c(O)c12
Result: Active
